src = the NIST ThermoML archive (doi:10.1016/j.jct.2016.08.008)

Known activity coefficient of a selection of compounds
# method.notes: activity coefficient (dimensionless); of the first substance listed, at infinite dilution; xn = mol fraction of the nth substance listed
# measurement.context: 358.15 K; 101.33 kPa; Liquid; Chromatography; x1 = 0
Just the number, please.

CC(C)c1ccccc1 [isopropylbenzene] + CCCCCCCCCCCCn1cc[n+](C)c1.O=S(=O)([N-]S(=O)(=O)C(F)(F)F)C(F)(F)F	1.32
C=CCCCCCCCC [1-decene] + CCCCCCCCCCCCn1cc[n+](C)c1.O=S(=O)([N-]S(=O)(=O)C(F)(F)F)C(F)(F)F	4.52
CCCC(C)=O [pentan-2-one] + CCCCCCCCCCCCn1cc[n+](C)c1.O=S(=O)([N-]S(=O)(=O)C(F)(F)F)C(F)(F)F	0.516
CCCC=O [butanal] + CCCCCCCCCCCCn1cc[n+](C)c1.O=S(=O)([N-]S(=O)(=O)C(F)(F)F)C(F)(F)F	0.554
CCC(=O)OC [methyl propanoate] + CCCCCCCCCCCCn1cc[n+](C)c1.O=S(=O)([N-]S(=O)(=O)C(F)(F)F)C(F)(F)F	0.634

Here is the next item to consider.
Enquiry: Quick one: activity coefficient of Cc1ccc(C)cc1 [1,4-dimethylbenzene] + CCCCCCCCCCCCn1cc[n+](C)c1.O=S(=O)([N-]S(=O)(=O)C(F)(F)F)C(F)(F)F ?
Return: 1.05

---

# method.notes: activity coefficient (dimensionless); of the first substance listed, at infinite dilution; xn = mol fraction of the nth substance listed
# measurement.context: 338.15 K; 101.33 kPa; Liquid; Chromatography; x1 = 0
recorded.endpoint: activity coefficient
The reply should be a number, written without any unit.

Consider the reported activity coefficient for these molecules:
CCC(C)O (configuration not stated) [butan-2-ol] + CCCCCCCCCCCCn1cc[n+](C)c1.O=S(=O)([N-]S(=O)(=O)C(F)(F)F)C(F)(F)F	1.18
CC(C)CC(C)(C)C [2,2,4-trimethylpentane] + CCCCCCCCCCCCn1cc[n+](C)c1.O=S(=O)([N-]S(=O)(=O)C(F)(F)F)C(F)(F)F	3.72

Enquiry: Entry under review: CCCCCCC [heptane] + CCCCCCCCCCCCn1cc[n+](C)c1.O=S(=O)([N-]S(=O)(=O)C(F)(F)F)C(F)(F)F . Reported activity coefficient?
Return: 3.65

Enquiry: Here is the next molecule: CC(C)CO [2-methyl-1-propanol] + CCCCCCCCCCCCn1cc[n+](C)c1.O=S(=O)([N-]S(=O)(=O)C(F)(F)F)C(F)(F)F
Return: 1.34

Enquiry: Repeat with CC(C)c1ccccc1 [isopropylbenzene] + CCCCCCCCCCCCn1cc[n+](C)c1.O=S(=O)([N-]S(=O)(=O)C(F)(F)F)C(F)(F)F
Return: 1.24

Enquiry: Repeat with CCCCCC [hexane] + CCCCCCCCCCCCn1cc[n+](C)c1.O=S(=O)([N-]S(=O)(=O)C(F)(F)F)C(F)(F)F
Return: 3.09

Enquiry: # repeat for c1ccccc1 [benzene] + CCCCCCCCCCCCn1cc[n+](C)c1.O=S(=O)([N-]S(=O)(=O)C(F)(F)F)C(F)(F)F
Return: 0.619

---

# method.notes: activity coefficient (dimensionless); of the first substance listed, at infinite dilution; xn = mol fraction of the nth substance listed
# measurement.context: 348.15 K; 101.33 kPa; Liquid; Chromatography; x1 = 0
If the reported activity coefficient equals or exceeds 1, assign Fulfilled. If not, assign Not fulfilled.

Completed entries (count: 2):
C=CCCCCC [1-heptene] + CCCCCCCCCCCCn1cc[n+](C)c1.O=S(=O)([N-]S(=O)(=O)C(F)(F)F)C(F)(F)F	Fulfilled
CC1CCCCC1 [methylcyclohexane] + CCCCCCCCCCCCn1cc[n+](C)c1.O=S(=O)([N-]S(=O)(=O)C(F)(F)F)C(F)(F)F	Fulfilled

Enquiry: Does activity coefficient meet or surpass 1 for Cc1ccccc1 [toluene] + CCCCCCCCCCCCn1cc[n+](C)c1.O=S(=O)([N-]S(=O)(=O)C(F)(F)F)C(F)(F)F ?
Return: Not fulfilled

Enquiry: For CCCCO [butan-1-ol] + CCCCCCCCCCCCn1cc[n+](C)c1.O=S(=O)([N-]S(=O)(=O)C(F)(F)F)C(F)(F)F then?
Return: Fulfilled

Enquiry: Now give it for CCCC(=O)OC [methyl butanoate] + CCCCCCCCCCCCn1cc[n+](C)c1.O=S(=O)([N-]S(=O)(=O)C(F)(F)F)C(F)(F)F too.
Return: Not fulfilled

Enquiry: Then COC(C)=O [methyl ethanoate] + CCCCCCCCCCCCn1cc[n+](C)c1.O=S(=O)([N-]S(=O)(=O)C(F)(F)F)C(F)(F)F ?
Return: Not fulfilled

Enquiry: Then this compound: CCCOCCC [dipropyl ether] + CCCCCCCCCCCCn1cc[n+](C)c1.O=S(=O)([N-]S(=O)(=O)C(F)(F)F)C(F)(F)F
Return: Fulfilled

Enquiry: Here is the next compound: CCCCCO [pentan-1-ol] + CCCCCCCCCCCCn1cc[n+](C)c1.O=S(=O)([N-]S(=O)(=O)C(F)(F)F)C(F)(F)F
Return: Fulfilled
